- System: 556581-035-R-J1-PDC complex spheroid growth;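 note: spheroids exposed to agents for 7 days before viability read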
- TEST_NAME: Anticancer human tumor 556581-035-R-J1-PDC patient-derived ovarian carcinoma cell line growth inhibition [Asc]
- TEST_PARAMETERS: second compound 0.1 µM; first compound 0.000316 µM; stronger effect = lower value
READOUT_LABEL: viability, T/C (%)
I only need the number, in %, no unit after it.

[
  {
    "COMPOUND": "Cn1ncnc1[C@H]1c2n[nH]c(=O)c3cc(F)cc(c23)N[C@@H]1c1ccc(F)cc1 + Cc1c(S(C)(=O)=O)c(-c2cc(F)cc(N3CCN(c4ccc(NS(=O)(=O)c5ccc(NC(CCN6CCC(C(=O)OCCCP(=O)(O)O)CC6)CSc6ccccc6)c(S(=O)(=O)C(F)(F)F)c5)cc4)CC3)c2)c(-c2ccc(Cl)cc2)n1C(C)C",
    "STUDY_SYSTEM": "556581-035-R-J1-PDC complex spheroid growth",
    "DATA_VALUE": 67.5
  },
  {
    "COMPOUND": "Cn1ncnc1[C@H]1c2n[nH]c(=O)c3cc(F)cc(c23)N[C@@H]1c1ccc(F)cc1 + CNC(C)C(=O)NC1CN(S(=O)(=O)c2cccc(S(=O)(=O)N3CCC4CCC(C(=O)NC(c5ccccc5)c5ccccc5)N4C(=O)C(NC(=O)C(C)NC)C3)c2)CCC2CCC(C(=O)NC(c3ccccc3)c3ccccc3)N2C1=O",
    "STUDY_SYSTEM": "556581-035-R-J1-PDC complex spheroid growth",
    "DATA_VALUE": 92.7
  }
]

Summary line: NC1CCC(NC2CC2c2ccccc2)CC1 (centres undefined) + CNC(C)C(=O)NC1CN(S(=O)(=O)c2cccc(S(=O)(=O)N3CCC4CCC(C(=O)NC(c5ccccc5)c5ccccc5)N4C(=O)C(NC(=O)C(C)NC)C3)c2)CCC2CCC(C(=O)NC(c3ccccc3)c3ccccc3)N2C1=O , 556581-035-R-J1-PDC complex spheroid growth, reported viability, T/C = 86.1

Summary line: NC1CCC(NC2CC2c2ccccc2)CC1 (centres undefined) + Cc1c(S(C)(=O)=O)c(-c2cc(F)cc(N3CCN(c4ccc(NS(=O)(=O)c5ccc(NC(CCN6CCC(C(=O)OCCCP(=O)(O)O)CC6)CSc6ccccc6)c(S(=O)(=O)C(F)(F)F)c5)cc4)CC3)c2)c(-c2ccc(Cl)cc2)n1C(C)C , 556581-035-R-J1-PDC complex spheroid growth, reported viability, T/C = 74.9

Reference source for all entries: PubChem BioAssay AID1963450
